B1: TPR 5TU (parent)
chain: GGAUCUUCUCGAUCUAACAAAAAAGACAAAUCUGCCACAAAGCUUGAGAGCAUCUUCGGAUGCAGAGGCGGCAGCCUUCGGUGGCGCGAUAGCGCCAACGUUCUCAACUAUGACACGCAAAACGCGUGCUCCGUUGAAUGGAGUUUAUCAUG

# Variants of: B1
# test: polymerase ribozyme fitness, log enrichment relative to wild type (log ratio); higher = more active; in vitro selection for triplet polymerase activity
Variants at the floor of the assay were thinned out.
metric name: polymerase ribozyme fitness (log ratio)

Lookup: Look up and report measured polymerase ribozyme fitness (log ratio) for this entry: A20U U55G C93G G94C A142G
Found: ≤ -4.2

Lookup: Look up and report measured polymerase ribozyme fitness (log ratio) for this entry: A23U G50C A122C G141C
Found: ≤ -4.2

Lookup: Look up and report measured polymerase ribozyme fitness (log ratio) for this entry: C5A U77A C87A
Found: ≤ -4.2

Lookup: Look up and report measured polymerase ribozyme fitness (log ratio) for this entry: U7G A23G U53A C99G C116A C125G A137C
Found: ≤ -4.2

Lookup: Look up and report measured polymerase ribozyme fitness (log ratio) for this entry: G11U U53A G65A A73U G83C U144A
Found: ≤ -4.2

Lookup: Look up and report measured polymerase ribozyme fitness (log ratio) for this entry: G84A G136A
Found: -0.313

Lookup: Look up and report measured polymerase ribozyme fitness (log ratio) for this entry: C63G A66G G71A G74U U135G G143C
Found: ≤ -4.2

Lookup: Look up and report measured polymerase ribozyme fitness (log ratio) for this entry: U55A A60G
Found: 0.676

Lookup: Look up and report measured polymerase ribozyme fitness (log ratio) for this entry: C32U C36A U55A U77G A91U G140U
Found: -3.95

Lookup: Look up and report measured polymerase ribozyme fitness (log ratio) for this entry: C85G C118U
Found: -3.37

Lookup: Look up and report measured polymerase ribozyme fitness (log ratio) for this entry: A3U C10U U61A G65A A66C
Found: ≤ -4.2
